IC50 by entry:
- Test system: Toxoplasma gondii
- assay-comment: Antiparasitic activity against Toxoplasma gondii tachyzoites
- Format: functional, organism-based
- experimental-context: Toxoplasma gondii; read-out: IC50

| smiles-str | IC50 / µg/mL |
| --- | --- |
| Cc1nnsc1C(=O)NNC(=S)Nc1ccc(F)cc1F | 92.3 |
| Cc1nnsc1C(=O)NNC(=S)Nc1ccccc1Br | 74.9 |
| C/C(=N\Nc1nc(-c2ccc(Cl)c(Cl)c2)cs1)c1ccc(Nc2nc(N)nc(N)n2)cc1 | 14.9 |

###

- Tested on: Vero
- assay-comment: Cytotoxicity against African green monkey Vero cells assessed as cell growth inhibition by alamar blue assay
- Assay type: functional
- experimental-context: Chlorocebus sabaeus, read-out: ED50 (the source's name)

| smiles-str | EC50 |
| --- | --- |
| O=P(O)(O)C(CSCCOc1cccc(Oc2ccccc2)c1)P(=O)(O)O | > 100 µM |
| N#CSCCOc1ccc(Oc2ccccn2)cc1 | > 200 µM |
| CC(=O)c1cc(Oc2ccccc2)ccc1OCCSC#N | 75.7 µM |
| N#CSCCOc1ccc(Oc2cccc(C(F)(F)F)c2)cc1 | > 50 µM |
| N#CSCCOc1ccc2ccccc2c1 | > 100 µM |
| N#CSCCOc1ccc(Oc2cccc(Oc3cccc(F)c3)c2)cc1 | > 50 µM |
| O=P(O)(O)C(CNCCOc1cccc(Oc2ccccc2)c1)P(=O)(O)O | > 50 µM |
| N#CSCCOc1ccc(Oc2cccc(Oc3ccccc3Cl)c2)cc1 | > 50 µM |
| N#CSCCOc1ccc(Oc2ccc3ccccc3c2)cc1 | 105 µM |
| N#CSCCOc1ccc(Oc2ccccc2)cc1 | 82.6 µM |
| N#CSCCOc1cccc2ccccc12 | > 50 µM |
| N#CSCCOc1ccc(Oc2ccc(C(F)(F)F)cc2)cc1 | > 50 µM |
| N#CSCCOc1ccc(Oc2cccnc2)cc1 | 134 µM |
| N#CSCCOc1ccc(Oc2ccncc2)cc1 | > 200 µM |

###

- Tested on: Toxoplasma gondii
- assay-comment: Antiparasitic activity against Toxoplasma gondii infected in HFF cells assessed as parasitic growth inhibition by MTT assay
- Type: functional, organism-based
measured-metric: EC50 (µM)

| smiles-str | measured-metric | reported-result |
| --- | --- | --- |
| CC[C@]1(C)NC(=O)[C@H](CCCCCC(=O)[C@@H](C)OC(=S)Oc2ccccc2)NC(=O)[C@H]2C[C@H](C)CN2C(=O)[C@H](Cc2ccccc2)NC1=O | EC50 | 0.0113 |

###

- assay-comment: Selectivity index, ratio of CC50 for cytotoxicity against HFF cells to IC50 for antiparasitic activity against Toxoplasma gondii infected in HFF cells
- Format: toxicity, cell-based
- experimental-context: human; read-out: Ratio CC50/IC50
measured-metric: selectivity ratio

| molecule | bound-operator | reported-result |
| --- | --- | --- |
| CCCCN(CCCC)S(=O)(=O)c1ccc(NC(=O)c2ccco2)cc1 | > | 28 |
| CCOc1ccccc1NC(=O)CN1CCN(C(=O)c2ccco2)CC1 | > | 157 |
| CC(C)(C)[C@H]1CC[C@H](CC2=C(O)C(=O)c3ccccc3C2=O)CC1 [BUPARVAQUONE] | = | 86.8 |
| COc1ccc(OC)c(NCc2ccc3nc(N)nc(N)c3c2Cl)c1 | = | 275 |

###

- assay-comment: Selectivity index, ratio of IC50 for cytotoxicity against human HeLa cells to IC50 for antiparasitic activity against Toxoplasma gondii tachyzoites infected in human HeLa cells
- Assay type: toxicity, cell-based
- experimental-context: read-out: Ratio IC50
Listed next: entries and their corresponding selectivity ratio.

| smiles-str | selectivity ratio |
| --- | --- |
| COc1cc(-n2cc(/C=C3/C[C@@]4(C)[C@H](CC[C@]5(C)[C@@H]4CC=C4[C@@H]6[C@@H](C)[C@H](C)CC[C@]6(C(=O)O)CC[C@]45C)C(C)(C)C3=O)nn2)cc(OC)c1OC | 1.17 |
| C[C@H]1[C@H](C)CC[C@]2(C(=O)OCCn3cnnc3-c3ccc([N+](=O)[O-])cc3)CC[C@]3(C)C(=CC[C@@H]4[C@@]5(C)CC[C@H](O)C(C)(C)[C@H]5CC[C@]43C)[C@H]12 | 1.77 |
| C[C@H]1[C@H](C)CC[C@]2(C(=O)O)CC[C@]3(C)C(=CC[C@@H]4[C@@]5(C)C/C(=C/c6cn(-c7ccccc7Cl)nn6)C(=O)C(C)(C)[C@H]5CC[C@]43C)[C@H]12 | 1.95 |
| C[C@H]1[C@H](C)CC[C@]2(C(=O)O)CC[C@]3(C)C(=CC[C@@H]4[C@@]5(C)CC[C@H](O)C(C)(C)[C@H]5CC[C@]43C)[C@H]12 | 0.62 |
| C[C@H]1[C@H](C)CC[C@]2(C(=O)O)CC[C@]3(C)C(=CC[C@@H]4[C@@]5(C)C/C(=C/c6cn(-c7ccccc7I)nn6)C(=O)C(C)(C)[C@H]5CC[C@]43C)[C@H]12 | 0.84 |
| C[C@H]1[C@H](C)CC[C@]2(C(=O)O)CC[C@]3(C)C(=CC[C@@H]4[C@@]5(C)C/C(=C/c6cn(-c7ccccc7Br)nn6)C(=O)C(C)(C)[C@H]5CC[C@]43C)[C@H]12 | 0.8 |
| C[C@H]1[C@H](C)CC[C@]2(C(=O)OCCn3cnnc3-c3ccccc3)CC[C@]3(C)C(=CC[C@@H]4[C@@]5(C)CC[C@H](O)C(C)(C)[C@H]5CC[C@]43C)[C@H]12 | 1.15 |
| C[C@H]1[C@H](C)CC[C@]2(C(=O)OCCn3cnnc3-c3ccc(F)cc3)CC[C@]3(C)C(=CC[C@@H]4[C@@]5(C)CC[C@H](O)C(C)(C)[C@H]5CC[C@]43C)[C@H]12 | 1.44 |

###

Below: a set of entries, each annotated with reported IC50.
- System: Toxoplasma gondii
- assay-comment: Antiparasitic activity against Toxoplasma gondii tachyzoites infected in human HeLa cells measured after 24 hrs by MTT assay
- Type: functional, organism-based
- experimental-context: Toxoplasma gondii, HeLa, 24 h

| smiles-str | IC50 |
| --- | --- |
| C[C@H]1[C@H](C)CC[C@]2(C(=O)O)CC[C@]3(C)C(=CC[C@@H]4[C@@]5(C)C/C(=C/c6cn(-c7ccccc7Cl)nn6)C(=O)C(C)(C)[C@H]5CC[C@]43C)[C@H]12 | 240 µM |
| C[C@H]1[C@H](C)CC[C@]2(C(=O)OCCn3cnnc3-c3ccccc3)CC[C@]3(C)C(=CC[C@@H]4[C@@]5(C)CC[C@H](O)C(C)(C)[C@H]5CC[C@]43C)[C@H]12 | 88 µM |
| C[C@H]1[C@H](C)CC[C@]2(C(=O)OCCn3cnnc3-c3ccc([N+](=O)[O-])cc3)CC[C@]3(C)C(=CC[C@@H]4[C@@]5(C)CC[C@H](O)C(C)(C)[C@H]5CC[C@]43C)[C@H]12 | 128 µM |

###

- assay-comment: Toxicity in BALB/c mouse infected with Toxoplasma gondii RH tachyzoites assessed as mortality […]
- experimental-context: in vivo

| molecule | mortality |
| --- | --- |
| COc1cc(C2C(C(=O)OCc3cccnc3)=C(C)NC3=C2C(=O)CCC3)cc(OC)c1OC (centres undefined) | 63% |
| CC1=C(C(=O)OCc2cccnc2)C(c2cccc(O)c2)C2=C(CCCC2=O)N1 (centres undefined) | 14% |
| CC1=C(C(=O)OCc2cccnc2)C(c2ccc(Br)cc2)C2=C(CCCC2=O)N1 (centres undefined) | 13% |
| COc1ccc(C2C(C(=O)OCCCc3ccccn3)=C(C)NC3=C2C(=O)CCC3)cc1 (centres undefined) | 75% |

###

survival at 10 mg/kg values for the compounds below.
- Test system: Toxoplasma gondii
- assay-comment: Antiparasitic activity against Toxoplasma gondii tachyzoites infected in mouse assessed as survival at 10 mg/kg relative to control
- Format: functional

| compound | unit-abbrev | survival at 10 mg/kg |
| --- | --- | --- |
| Nc1ncnc2c1ncn2Cc1c(F)cccc1Cl | % | 100 |
| N[C@@H]1[C@H]2CN(c3nc4c(cc3F)c(=O)c(C(=O)O)cn4-c3ccc(F)cc3F)C[C@@H]12 | % | 90 |
| CC(=O)O[C@H]1C[C@@]2(C)[C@@H](C[C@@H](O)[C@H]3[C@@]4(C)CC[C@@H](O)[C@@H](C)[C@@H]4CC[C@@]32C)/C1=C(\CCC=C(C)C)C(=O)O | % | 90 |
| Cc1cc(-n2c(=O)[nH]c(=O)n(C)c2=O)ccc1Oc1ccc(S(=O)(=O)C(F)(F)F)cc1 | % | 100 |
| Cc1cc(-n2c(=O)[nH]c(=O)n(C)c2=O)ccc1Oc1ccc(SC(F)(F)F)cc1 | % | 100 |
| N#CC(c1ccc(Cl)cc1)c1c(Cl)cc(-n2ncc(=O)[nH]c2=O)cc1Cl (configuration not stated) | % | 100 |
| CO[C@H]1/C=C/O[C@@]2(C)Oc3c(C)c(O)c4c(O)c(c(/C=N/N5CCN(C6CCCC6)CC5)c(O)c4c3C2=O)NC(=O)/C(C)=C\C=C\[C@H](C)[C@H](O)[C@@H](C)[C@@H](O)[C@@H](C)[C@H](OC(C)=O)[C@@H]1C | % | 90 |
